Data origin, for the record: PubChem BioAssay AID1159580

# TEST NAME: chemical genetic growth profiling, strain panel (AID 1159580);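 note: tested at 20 µM; growth read once vehicle control cultures reached saturation at 30 °C; 1 = growth at the plate median or of vehicle wells; lower values mean less growth of the strain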
# APPLIED CONDITIONS: S. cerevisiae deletion strains, growth OD, locus YKL068W
Among all 5,500 compounds or so, about 2,000 (36%) were called active. Roughly 18% stayed inconclusive and do not appear here. Cut-off read from the data, not from the text of the source: active = normalized growth mostly below about 0.91 (no sharp cut-off); inconclusive = no clear call, values can overlap the other calls; inactive = mostly above about 0.92. The list shows a part of the results. Where a SMILES comes first, the peptide text is derived from it. Bridges are numbered along the chain shown (N, C = ends). Side-chain parts run from the residue outwards. [ ]: non-standard residue; d: D form. The star is where a group is joined. Octanoyl(6-Me) = CCC(C)CCCCC(=O)*; X1 = CCC(C)C(N)C1=NC(C(=O)*)CS1; Orn = NCCC[CH](N)C(=O)O; Dab = NCC[CH](N)C(=O)O
Possible outcomes: class 1 (active), class 0 (inactive)

[
  {
    "MOLECULE": "Cc1onc(-c2c(Cl)cccc2Cl)c1C(=O)N[C@@H]1C(=O)N2[C@@H]1SC(C)(C)[C@@H]2C(=O)O",
    "ANSWER LABEL": "class 0"
  },
  {
    "MOLECULE": "O=C(O)c1cc(=O)c2cccc(O)c2[nH]1",
    "ANSWER LABEL": "class 0"
  },
  {
    "MOLECULE": "COc1cnc(NS(=O)(=O)c2ccc(N)cc2)nc1",
    "ANSWER LABEL": "class 0"
  },
  {
    "MOLECULE": "COc1c2ccoc2cc2oc(C)cc(=O)c12",
    "ANSWER LABEL": "class 0"
  },
  {
    "MOLECULE": "CC(=O)Oc1cccc2c1C(=O)c1c(OC(C)=O)cc(C(=O)O)cc1C2=O",
    "ANSWER LABEL": "class 0"
  },
  {
    "MOLECULE": "CO[C@@]1(NC(=O)Cc2cccs2)C(=O)N2C(C(=O)O)=C(COC(N)=O)CS[C@@H]21",
    "ANSWER LABEL": "class 0"
  },
  {
    "MOLECULE": "CNC(Cc1c[nH]c2ccccc12)C(=O)O (configuration not stated)",
    "ANSWER LABEL": "class 0"
  },
  {
    "MOLECULE": "CC(=O)N[C@@H](Cc1c[nH]c2ccccc12)C(=O)O",
    "ANSWER LABEL": "class 0"
  },
  {
    "MOLECULE": "NC(N)=NC(N)=Nc1ccccc1",
    "ANSWER LABEL": "class 0"
  },
  {
    "MOLECULE": "CN(C)CCc1c[nH]c2ccc(CS(=O)(=O)N3CCCC3)cc12",
    "ANSWER LABEL": "class 0"
  },
  {
    "MOLECULE": "CCC(C)CCCCC(=O)NC(CCN)C(=O)NC(C(=O)NC(CCN)C(=O)NC1CCNC(=O)C(C(C)O)NC(=O)C(CCN)NC(=O)C(CCN)NC(=O)C(CC(C)C)NC(=O)C(Cc2ccccc2)NC(=O)C(CCN)NC1=O)C(C)O (configuration not stated) ({Octanoyl(6-Me)}-[Dab]T[Dab][Dab][Dab]FL[Dab][Dab]T; lactam 4-C; configuration not given here)",
    "ANSWER LABEL": "class 0"
  },
  {
    "MOLECULE": "Cc1cc(=O)n(-c2ccccc2)n1C",
    "ANSWER LABEL": "class 0"
  },
  {
    "MOLECULE": "COc1c2occc2c(OC)c2c(=O)cc(C)oc12",
    "ANSWER LABEL": "class 0"
  },
  {
    "MOLECULE": "COc1cc2c(cc1OC)[C@@]13CCN4CC5=CCOC6CC(=O)N2C1[C@H]6[C@H]5C[C@H]43 (some centres not stated)",
    "ANSWER LABEL": "class 0"
  },
  {
    "MOLECULE": "CC(=O)OCC(=O)[C@@]1(O)CCC2C3CCC4=CC(=O)CC[C@]4(C)C3[C@@H](O)C[C@@]21C (some centres not stated)",
    "ANSWER LABEL": "class 0"
  },
  {
    "MOLECULE": "CC1(C)C(=O)[C@@H]2C[C@@]3(O)C4=CC(=O)O[C@@H](c5ccoc5)[C@]4(C)CCC3[C@@](C)(C2=O)[C@H]1CC(=O)O (some centres not stated)",
    "ANSWER LABEL": "class 0"
  },
  {
    "MOLECULE": "CC(C)CC1NC(=O)C(CCCN)NC(=O)C(C(C)C)NC(=O)C2CCCN2C(=O)C(Cc2ccccc2)NC(=O)C(CC(C)C)NC(=O)C(CCCN)NC(=O)C(C(C)C)NC(=O)C2CCCN2C(=O)C(Cc2ccccc2)NC1=O (configuration not stated) (cyclo(FPV[Orn]LFPV[Orn]L); configuration not given here)",
    "ANSWER LABEL": "class 1"
  },
  {
    "MOLECULE": "Cc1cc(C(C)(C)C)cc(C)c1CC1=NCCN1",
    "ANSWER LABEL": "class 0"
  },
  {
    "MOLECULE": "NC1C[C@H]1c1ccccc1 (some centres not stated)",
    "ANSWER LABEL": "class 0"
  },
  {
    "MOLECULE": "COc1cc2c(cc1O)CCNC2C (configuration not stated)",
    "ANSWER LABEL": "class 0"
  },
  {
    "MOLECULE": "Cc1ccc(N(CC2=NCCN2)c2cccc(O)c2)cc1",
    "ANSWER LABEL": "class 0"
  },
  {
    "MOLECULE": "CCC(C)C(N)C1=NC(C(=O)NC(CC(C)C)C(=O)NC(CCC(=O)O)C(=O)NC(C(=O)NCCCCC2NC(=O)C(CC(N)=O)NC(=O)C(CC(=O)O)NC(=O)C(Cc3cnc[nH]3)NC(=O)C(Cc3ccccc3)NC(=O)C(C(C)CC)NC(=O)C(CCCN)NC2=O)C(C)CC)CS1 (stereo not drawn) (cyclo(DNK([Ile-Glu-Leu-X1])[Orn]IFH); configuration not given here)",
    "ANSWER LABEL": "class 0"
  },
  {
    "MOLECULE": "O=C(O)c1cc(=O)c2c(Cl)cc(Cl)cc2[nH]1",
    "ANSWER LABEL": "class 0"
  },
  {
    "MOLECULE": "COC1(C)CCC2OC2(C)CCC2C1CC2(C)C (configuration not stated)",
    "ANSWER LABEL": "class 0"
  },
  {
    "MOLECULE": "Cc1onc(-c2ccccc2Cl)c1C(=O)N[C@@H]1C(=O)N2[C@@H]1SC(C)(C)[C@@H]2C(=O)O",
    "ANSWER LABEL": "class 0"
  },
  {
    "MOLECULE": "CC1=CC2C(C(C)C)CCC(C)(O)C2CC1 (configuration not stated)",
    "ANSWER LABEL": "class 0"
  },
  {
    "MOLECULE": "CN1CCN(CC(=O)N2c3ccccc3C(=O)Nc3cccnc32)CC1",
    "ANSWER LABEL": "class 0"
  },
  {
    "MOLECULE": "CC(=O)OCC(=O)[C@@]12OC3(CCCC3)O[C@@H]1CC1C3CCC4=CC(=O)C=C[C@]4(C)[C@@]3(F)[C@@H](O)C[C@@]12C (some centres not stated)",
    "ANSWER LABEL": "class 0"
  },
  {
    "MOLECULE": "CCN(CC)CCNC(=O)c1cc(Cl)c(N)cc1OC",
    "ANSWER LABEL": "class 0"
  },
  {
    "MOLECULE": "CN1C(=O)CCS(=O)(=O)C1c1ccc(Cl)cc1 (configuration not stated)",
    "ANSWER LABEL": "class 0"
  },
  {
    "MOLECULE": "NC1CC1c1ccccc1 (configuration not stated)",
    "ANSWER LABEL": "class 0"
  },
  {
    "MOLECULE": "C=C(C)[C@@H]1CC[C@]2(CO)CC[C@]3(C)[C@H](CCC4[C@@]5(C)CC[C@H](O)C(C)(C)C5CC[C@]43C)C12 (some centres not stated)",
    "ANSWER LABEL": "class 1"
  },
  {
    "MOLECULE": "COc1ccc(C2C(=O)c3ccccc3C2=O)cc1",
    "ANSWER LABEL": "class 0"
  },
  {
    "MOLECULE": "CC(=O)Oc1cccc(C(=O)O)c1OC(C)=O",
    "ANSWER LABEL": "class 0"
  },
  {
    "MOLECULE": "NC(=O)N1c2ccccc2C=Cc2ccccc21",
    "ANSWER LABEL": "class 0"
  },
  {
    "MOLECULE": "CC(N)C(O)c1ccc(O)c(O)c1 (configuration not stated)",
    "ANSWER LABEL": "class 0"
  },
  {
    "MOLECULE": "CC1(C)S[C@@H]2[C@H](NC(=O)Cc3ccccc3)C(=O)N2[C@H]1C(=O)O",
    "ANSWER LABEL": "class 0"
  }
]
